Numbers sourced from the supplement of paper PMC10307832.

Give measured relative viability for each item. Keep answers brief.
- Tested on: NCI-H838
- test-description: relative viability (nuclei count vs DMSO), 5 days (fraction); higher = more cells survive
- cond: first compound 0.1581 µM

COc1cc2nccc(Oc3ccc(NC(=O)Nc4cc(C)on4)c(Cl)c3)c2cc1OC [Tivozanib] + NC(=O)Nc1cc(-c2cccc(F)c2)sc1C(=O)N[C@H]1CCCNC1 [AZD7762] (partner 0.2 µM) yielded relative viability of 1.04

Nc1ccn([C@@H]2O[C@H](CO)[C@@H](O)[C@@H]2O)c(=O)n1 [Cytarabine] + COc1cccc2cc(-c3nc([C@H]4CC[C@H](C(=O)O)CC4)n4ncnc(N)c34)[nH]c12 [OSI-027] (partner 0.5 µM) yielded relative viability of 0.273

COc1cc2nccc(Oc3ccc(NC(=O)Nc4cc(C)on4)c(Cl)c3)c2cc1OC [Tivozanib] + Cc1nc(Nc2ncc(C(=O)Nc3c(C)cccc3Cl)s2)cc(N2CCN(CCO)CC2)n1 [Dasatinib] (partner 0.075 µM) yielded relative viability of 0.307

Nc1ccn([C@@H]2O[C@H](CO)[C@@H](O)[C@@H]2O)c(=O)n1 [Cytarabine] + CS(=O)(=O)CCNCc1ccc(-c2ccc3ncnc(Nc4ccc(OCc5cccc(F)c5)c(Cl)c4)c3c2)o1 [Lapatinib] (partner 2 µM) yielded relative viability of 0.288
